The reader will find reported RSV IC 50 (ng/mL), GFP-based in vitro neutralization values listed item by item below.
system-name: fusion glycoprotein (F) of the RSV used in the GFP-based neutralization assay of Table 23 (respiratory syncytial virus)
experiment-summary: cell-based or functional assay
Field format: number, assumed ng/mL, no unit text.

As a guide, the following entries are already answered.
MPH12 (antibody, IgG1, V domains shown, also called WT; parental MPH12-wt) VH: QVQLVESGGGLVKPGGSLRLSCVASGFTFSGFYMKWIRQAPGKGLEWVSSISASGSYTNYADSVEGRFTVSRDNAKNSLFLLMSSLRAEDTAVYYCARGDSYCGASACHGEFFHKWGQGTLVTVSS VL: QSVLTQPPSVSGAPGQRVTISCTGSDSNIGADFDVHWYQQLPGTAPKLLIYGNINRPSGVPDRFSGSRSGTSAFLAITRLQAEDEADYYCQSYDRSLHYVFGAGTKVTVL; 47.7
MPH12-v17 (VH-FRGL-D62E/VL-D25S) (antibody, V domains shown, also called MPH12 VH-FRGL-D62E / MPH12 VL-D25S) VH: QVQLVESGGGLVKPGGSLRLSCAASGFTFSGFYMKWIRQAPGKGLEWVSSISASGSYTNYAESVEGRFTISRDNAKNSLYLQMNSLRAEDTAVYYCARGDSYCGASACHGEFFHKWGQGTLVTVSS VL: QSVLTQPPSVSGAPGQRVTISCTGSSSNIGADFDVHWYQQLPGTAPKLLIYGNINRPSGVPDRFSGSRSGTSAFLAITRLQAEDEADYYCQSYDRSLHYVFGAGTKVTVL; 44.9
MPH12-v16 (VH-FRGL-S63A/VL-D25S) (antibody, V domains shown, also called MPH12 VH-FRGL-S63A / MPH12 VL-D25S) VH: QVQLVESGGGLVKPGGSLRLSCAASGFTFSGFYMKWIRQAPGKGLEWVSSISASGSYTNYADAVEGRFTISRDNAKNSLYLQMNSLRAEDTAVYYCARGDSYCGASACHGEFFHKWGQGTLVTVSS VL: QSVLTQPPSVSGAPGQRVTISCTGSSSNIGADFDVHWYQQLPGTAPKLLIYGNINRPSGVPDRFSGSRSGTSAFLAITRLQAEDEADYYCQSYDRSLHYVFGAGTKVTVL; 50.3

Now, please, on to the next binder.
stdin: Sample MPH12-v28 (VH-FRGL-S63A/VL-S26A) (antibody, V domains shown, also called MPH12 VH-FRGL-S63A / MPH12 VL-S26A) VH: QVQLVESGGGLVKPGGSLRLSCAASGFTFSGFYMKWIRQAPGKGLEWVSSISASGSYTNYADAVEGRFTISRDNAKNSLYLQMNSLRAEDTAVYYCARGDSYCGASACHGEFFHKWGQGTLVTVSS VL: QSVLTQPPSVSGAPGQRVTISCTGSDANIGADFDVHWYQQLPGTAPKLLIYGNINRPSGVPDRFSGSRSGTSAFLAITRLQAEDEADYYCQSYDRSLHYVFGAGTKVTVL — what was its RSV IC 50 (ng/mL), GFP-based in vitro neutralization?
stdout: 59.4
